B1: TOR1AIP2 (parent)
chain: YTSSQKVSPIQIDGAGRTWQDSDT

variants of: B1; assay: protein stability index of a GFP-peptide fusion (GPS, HEK-293T) (PSI 1-6); higher = more stable; conditions: c terminus: a fixed tail appended;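 note: lentivirally expressed fusions sorted by FACS into six bins by GFP to DsRed ratio, PSI derived from sequencing read proportions per bin multiplied by bin number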
Entries and their protein stability index values follow.
valueType: protein stability index

| mutationDescriptor | recordedMeasurement |
| --- | --- |
| S4K | 2.36 |
| Y1D | 4.85 |
| G16Y | 2.89 |
| D21P | 2.81 |
| Q11H | 3.67 |
